Measured pEC50, listed per entry.
SYSTEM TESTED: FXR (Homo sapiens)
Construct: using a full length FXR on a natural response element; expressed in transfected cells
Sequence (Q96RI1 whole entry, species assumed): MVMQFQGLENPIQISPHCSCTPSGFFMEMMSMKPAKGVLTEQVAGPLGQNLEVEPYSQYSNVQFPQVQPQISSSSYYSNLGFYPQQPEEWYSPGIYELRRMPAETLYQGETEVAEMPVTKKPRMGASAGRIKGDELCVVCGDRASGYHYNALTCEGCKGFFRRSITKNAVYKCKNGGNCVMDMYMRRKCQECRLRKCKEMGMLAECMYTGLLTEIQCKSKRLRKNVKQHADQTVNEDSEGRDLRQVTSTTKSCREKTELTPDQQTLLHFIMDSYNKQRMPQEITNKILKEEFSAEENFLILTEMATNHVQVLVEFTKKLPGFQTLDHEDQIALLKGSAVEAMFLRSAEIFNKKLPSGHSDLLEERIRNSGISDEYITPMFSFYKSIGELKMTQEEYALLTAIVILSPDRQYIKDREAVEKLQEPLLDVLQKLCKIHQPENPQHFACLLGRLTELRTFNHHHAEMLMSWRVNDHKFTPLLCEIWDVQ
MEASUREMENT NOTES: cell-based transcription assay, FXR responsive promoter linked to a luciferase reporter
MEASUREMENT SETUP: Tables 1-15; FXR activation, cell-based reporter assay; read-out: EC50
pEC50: −log10 of the molar value.
RECORDED METRIC: pEC50

1) COC(=O)/C=C/c1cccc(N(Cc2ccc(/C=C/c3cccc(F)c3)cc2)C(=O)NC(C)C)c1 ... 6.33
2) COC(=O)/C=C/c1cccc(N(Cc2ccc(/C=C/C(=O)OC(C)(C)C)cc2)C(=O)C2CCCC2)c1 ... 6.79
3) COC(=O)/C=C/c1cccc(N(Cc2ccc(/C=C/C(=O)OC(C)(C)C)cc2)C(=O)C2CCC2)c1 ... 6.73
4) COC(=O)/C=C/c1cccc(N(Cc2ccc(/C=C/c3cccc(F)c3)cc2)C(=O)C(C)C)c1 ... 7.15
5) COC(=O)/C=C/c1cccc(N(Cc2ccc(-c3cc(Cl)ccc3OC)cc2)C(=O)C2CCCCC2)c1 ... 6.63
6) COC(=O)C=Cc1cccc(N(Cc2ccc(C=Cc3ccccn3)cc2)C(=O)NC(C)C)c1 ... 6.24
7) COC(=O)/C=C/c1cccc(N(Cc2ccc(-c3c(OC)cccc3OC)cc2)C(=O)C(C)C)c1 ... 7.02
8) COC(=O)/C=C/c1cccc(N(Cc2ccc(/C=C/c3c(Cl)cccc3Cl)cc2)C(=O)C(C)C)c1 ... 6.71
9) COC(=O)/C=C/c1cccc(N(Cc2ccc(-c3cccc(Cl)c3)cc2)C(=O)C2CCCCC2)c1 ... 7.03
10) COC(=O)/C=C/c1cccc(N(Cc2ccc(-c3cccc(OC(F)(F)F)c3)cc2)C(=O)C2CCCCC2)c1 ... 6.38
11) COC(=O)C=Cc1cccc(N(Cc2ccc(C=Cc3scnc3C)cc2)C(=O)C(C)C)c1 ... 6.64
12) COC(=O)/C=C/c1cccc(N(Cc2ccc(-c3cccc(Cl)c3)cc2)C(=O)NC(C)C)c1 ... 5.85
13) COC(=O)/C=C/c1cccc(N(Cc2ccc(/C=C/c3cccc(Cl)c3)cc2)C(=O)NC(C)C)c1 ... 6.47
14) COC(=O)/C=C/c1cccc(N(Cc2ccc(/C=C/c3cc(C(F)(F)F)cc(C(F)(F)F)c3)cc2)C(=O)C(C)C)c1 ... 5.71
15) COC(=O)/C=C/c1cccc(N(Cc2ccc(-c3cccc(OC(F)(F)F)c3)cc2)C(=O)C(C)C)c1 ... 6.61
16) COC(=O)/C=C/c1cccc(N(Cc2ccc(/C=C/c3ccc(C)cc3)cc2)C(=O)C2CCCCC2)c1 ... 6.47
17) COC(=O)/C=C/c1cccc(N(Cc2ccc(-c3ccc(SC)cc3)cc2)C(=O)C(C)C)c1 ... 7.29
18) COC(=O)/C=C/c1cccc(N(Cc2ccc(-c3ccccc3OC)cc2)C(=O)NC(C)C)c1 ... 5.40
19) COC(=O)C=Cc1cccc(N(Cc2ccc(C=Cc3ccccn3)cc2)C(=O)C(C)C)c1 ... 6.51
20) COC(=O)/C=C/c1cccc(N(Cc2ccc(/C=C/C(=O)OC(C)(C)C)cc2)C(=O)c2ccco2)c1 ... 6.69
21) COC(=O)/C=C/c1cccc(N(Cc2ccc(-c3ccc(SC)cc3)cc2)C(=O)NC(C)C)c1 ... 6.75
22) COC(=O)/C=C/c1cccc(N(Cc2ccc(-c3cccc(C)c3)cc2)C(=O)C(C)C)c1 ... 6.79
23) COC(=O)/C=C/c1cccc(N(Cc2ccc(-c3ccc(OC(F)(F)F)cc3)cc2)C(=O)C2CCCCC2)c1 ... 6.58
